Reference source: ChEMBL document CHEMBL3621173

test-system: Bromodomain-containing protein 2 (Homo sapiens) (UniProt P25440)
Sequence (P25440 whole entry, looked up): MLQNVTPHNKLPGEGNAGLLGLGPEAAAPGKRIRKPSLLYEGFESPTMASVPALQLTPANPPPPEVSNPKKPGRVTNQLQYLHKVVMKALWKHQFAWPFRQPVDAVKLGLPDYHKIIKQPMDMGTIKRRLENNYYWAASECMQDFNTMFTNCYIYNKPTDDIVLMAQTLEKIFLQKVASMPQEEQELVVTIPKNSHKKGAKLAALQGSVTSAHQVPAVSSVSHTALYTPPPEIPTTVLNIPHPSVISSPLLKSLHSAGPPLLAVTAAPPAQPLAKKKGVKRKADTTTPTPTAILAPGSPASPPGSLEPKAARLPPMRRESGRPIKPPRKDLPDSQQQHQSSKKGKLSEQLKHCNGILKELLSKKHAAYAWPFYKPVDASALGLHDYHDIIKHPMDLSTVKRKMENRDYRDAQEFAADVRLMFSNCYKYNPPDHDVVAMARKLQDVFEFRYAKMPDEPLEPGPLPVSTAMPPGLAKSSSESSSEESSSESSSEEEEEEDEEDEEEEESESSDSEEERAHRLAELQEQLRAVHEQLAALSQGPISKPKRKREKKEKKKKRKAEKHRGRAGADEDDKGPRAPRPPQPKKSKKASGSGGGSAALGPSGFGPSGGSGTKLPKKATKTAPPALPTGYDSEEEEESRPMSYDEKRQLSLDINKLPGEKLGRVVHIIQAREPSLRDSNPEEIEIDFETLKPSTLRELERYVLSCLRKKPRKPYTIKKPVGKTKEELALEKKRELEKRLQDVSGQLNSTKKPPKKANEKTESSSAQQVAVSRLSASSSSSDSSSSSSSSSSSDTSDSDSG
protocol-details: Inhibition of BRD2 (D1) (unknown origin) at 5 uM incubated for 30 mins using histone H4 peptide (1-21) K5/8/12/16Ac-biotin by alpha screen assay
Calls of active or inactive are those of the source. No cut-off for these calls is given here.
Labels: active, inactive

chemical-string | test-system | group-label
COc1ccc(-c2ccncc2)cc1S(=O)(=O)NC1CCCC1 | Bromodomain-containing protein 2 (Homo sapiens) (UniProt P25440) | inactive
CC(=O)Nc1ccc(C)c(S(=O)(=O)NC2CCCC2)c1 | Bromodomain-containing protein 2 (Homo sapiens) (UniProt P25440) | inactive
COc1ccc(-c2cc[n+]([O-])cc2)cc1S(=O)(=O)NC1CCCC1 | Bromodomain-containing protein 2 (Homo sapiens) (UniProt P25440) | inactive
COc1ccc(-c2ccnn2C)cc1S(=O)(=O)NC1CCCC1 | Bromodomain-containing protein 2 (Homo sapiens) (UniProt P25440) | active
COc1ccc(-c2cccc(NC(C)=O)c2)cc1S(=O)(=O)NC1CCCC1 | Bromodomain-containing protein 2 (Homo sapiens) (UniProt P25440) | inactive
COc1ccc(-c2c(C)nn(C)c2C)cc1S(=O)(=O)NC1CCCC1 | Bromodomain-containing protein 2 (Homo sapiens) (UniProt P25440) | inactive
COc1ccc(-c2cn[nH]c2)cc1S(=O)(=O)NC1CCCC1 | Bromodomain-containing protein 2 (Homo sapiens) (UniProt P25440) | inactive
Cc1nc(-c2ccc(C)c(S(=O)(=O)NC3CCCC3)c2)no1 | Bromodomain-containing protein 2 (Homo sapiens) (UniProt P25440) | inactive
COc1ccc(-c2cn(C)nn2)cc1S(=O)(=O)NC1CCCC1 | Bromodomain-containing protein 2 (Homo sapiens) (UniProt P25440) | inactive
COc1ccc(-c2cccnc2)cc1S(=O)(=O)NC1CCCC1 | Bromodomain-containing protein 2 (Homo sapiens) (UniProt P25440) | inactive
COc1ccc(-c2ccsc2)cc1S(=O)(=O)NC1CCCC1 | Bromodomain-containing protein 2 (Homo sapiens) (UniProt P25440) | inactive

* * *

protocol-details: Intrinsic clearance in human liver microsomes
Assay type: ADME
condition-set: read-out: CLH

chemical-string | microsomal CLint (µL/min/mg)
Cc1sc2c(c1C)C(c1ccc(Cl)cc1)=N[C@@H](CC(=O)OC(C)(C)C)c1nnc(C)n1-2 | 136
COc1cc2c(cc1-c1c(C)noc1C)ncc1[nH]c(=O)n([C@H](C)c3ccccn3)c12 | 7
Cc1ccc(-n2c(C)nnc2C)cc1S(=O)(=O)NC1CCCC1 | 10
Cc1ccc(-c2c(C)noc2C)cc1S(=O)(=O)NC1CCCC1 | 246
